# protease stability score values compiled below
# TEST_DETAILS: protease stability score; higher = more stable; yeast display proteolysis, trypsin and chymotrypsin;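 also: relative to predicted unfolded state with 0 unfolded-like and 1 meaning tenfold more protease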
Number only, please.

INSERT INTO assay_data (record_sequence, quantity_measured, readout_number) VALUES
  ('HEHKEEVDELISMALESMHTGDEETWYRMADPHVRMDVNGQDIHGREEVSEIYVHWLREAGVKHIKIEDVKVINGRVDLHIFSKVNGRFFEYRLISEKIDGQWHIKSVRIL', 'protease stability score', 0.399),
  ('DETEEDARHFVELWRRDMITGDEDRIKEMADPNVRVIIGDKNLHGREDMTEVLRHLRIHRVNVHSIHVQGDWVHITTEVDGRIGDKRHELEVHILTRKVNGRWQLQTLEIG', 'protease stability score', 1.12);

Now for a further sequence.
Problem: Report protease stability score for TEREEENRIARQLFEHDWETGDEDSIHRLADPHALLTDENEKLHGREDVTDWIIKVSRKYKNLQFRVTDQELQGNKLIIYSTSKYNGRTFHLIFFVLKVDGRWHFHHMRIE please.
Result: 1.36

* * *

Item-by-item account of protease stability score
# TEST_DETAILS: protease stability score; higher = more stable; yeast display proteolysis, trypsin and chymotrypsin;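 also: relative to predicted unfolded state with 0 unfolded-like and 1 meaning tenfold more protease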
// print number alone

INSERT INTO measurements (record_sequence, quantity_measured, readout_number) VALUES
  ('DEEKKLMLESMKQTLDKIFTGDFDSTAEYLDPHARYIIGDKTLHGMERWKEFLDRFDHVHIHDVKLHSVRIIDGVAILDGRIDTEIIINGVRIRETVEVQIVIVKVNGRWKDERVEFK', 'protease stability score', 0.13),
  ('DDDKREMEEIARRWVESLETGDEDTLTKLADPNTKLELLIDGRENNLIGMRYWLEFLERFKNVTIKFKRMRVQGDKADIETEVNINGQRFRVRIELWVIDGRLHTLHIRIE', 'protease stability score', 1.23),
  ('DEKNHLWDEISEIFVQNWVTGDEDSLRHMADPNVRTDINGVELHGMEETNRFIIEELKHARSRVHLEHRDAVNGRIHLQTELYSNVDGQEIRYKTRIILIVVNGRLKEIKFIQH', 'protease stability score', 0.581);

Problem: # query: protease stability score of entry DQDEEIMRRLLKTILESWVTGDEDELRRRADPDARSDINGRKHHGRDRVVKRMHDWLRELGIDHLHIEHERIIGEKAHFDTRVHVNGKTFEMFLHFEIIDGRVRSMHVEIR
Result: 0.654

Problem: Ok, now DESEELTKEAKRVYYETMRTGDEHNLKRLMDPNTRMDFNGVEFHGREAVKILVEQADHLEDVRIKRERVDEHEVELHGEFHGKVNGRHTTTHVILFWLKYNGRWRVKELQVR
Result: 0.84

Problem: Next sequence up: SERKQASEDAFRIYIETFKTGDERTMRENMDPDVRVHIGEFNHHGMEESAHLLHEYWKRFGFRIRHVHIEDVKNVGNKVILHTLSEIEINGREEHVDTELIILKIDGKWLVEEVRVK
Result: 0.92

* * *

# TEST_DETAILS: protease stability score; higher = more stable; yeast display proteolysis, trypsin and chymotrypsin;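 also: relative to predicted unfolded state with 0 unfolded-like and 1 meaning tenfold more protease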
Tick Y if protease stability score is 0.6 or greater. Tick N if protease stability score is less than 0.6.

INSERT INTO measurements (record_sequence, class_label) VALUES
  ('SEEEEEIRRTIEMLLKAWQTGDEEFWMRLFDPHYRFEINGKVYHGREVMRLERRRIDYIHRVEYRIDHIDTQGDKVIIRFTLHLDVEFDGVRTELHEHRVIIIEKVNGQWRLKSVEIE', 'Y'),
  ('DEEEELMHRLVELFLKALITGDEETLSHLADPNVRLHIDGRHIHGWQFSVKEWLRESSEIRMELQIRHIHLIGDKVHVHGQLSIHQGNKHIHREVIYDFVIINGRLKSITVEIT', 'Y'),
  ('DEEHKHLREILRLMIEWLRTGDWEKIERNADPTTKMDYGEFKTHGREEYYRALMILIRHLGVDHITLHDFTFIDGKIYLDLIIHVNGQHERVTLEMHFVDGVIKRHHVREK', 'N'),
  ('DEDEDTAHETWKILVHSLITGDERTMELLMDPNVQVHVGDKRHIGRERASRFHSEIRTEHVEMRTSEMQGNKVILHGRVVMRVNGKTLDHDFHLILDKIDGKWYITEIRFK', 'N'),
  ('DEDDEAAQEAVKIVEEVTKTGNWRVLLELLDPHTRVHTEHHELHGMEEYVREVQKMMQDFGVTKVEVRFHEIIIIGEKIHMRVTIHVNGVTLDTEVVSLKYNGRWYLHTLRMK', 'Y');

Okay, now this sequence:
Problem: Kindly determine if protease stability score recorded for SEHEEHIHKLMREWIEALLTGDEEHIEHLVDPHDRLNIDGRHYHGRENATKALHQKREQIRIEHIRVDDVKFYGDKVHVEMTVHGNINGKRIEIDTRFIIVVIDGVLRSFEFRHK is above or exactly 0.6.
Result: N

The values you see were collected from the NTF2 design screens of Basanta et al. (2020).
